Test: Cytotoxicity against African green monkey Vero cells measured after 72 hrs by MTT assay
Assay type: toxicity, cell-based
Settings: African green monkey (Chlorocebus sabaeus)
Rule: measured IC50 at 72 h below 30 µM gets class 1; anything equal to or greater than 30 µM gets class 0.

Inquiry: # check: IC50 at 72 h < 30 µM for `CC(=O)O[C@@H]1/C=C/[C@](C)(O)C[C@@H](C)C/C=C/[C@H]2C=C(C)[C@@H](C)[C@H]3[C@H](Cc4ccccc4)NC(=O)[C@]321`
Reply text: class 0

Inquiry: Entry to check: `CC(=O)O[C@@H]1/C=C/[C@](C)(O)C[C@@H](C)C/C=C/[C@H]2C=C(C(=O)O)[C@@H](C)[C@H]3[C@H](Cc4ccccc4)NC(=O)[C@]321`
Reply text: class 0

Inquiry: Entry to check: `CC1=C[C@@H]2/C=C/C[C@H](C)C[C@@](C)(O)/C=C/[C@@H](O)[C@]23C(=O)N[C@@H](Cc2ccccc2)[C@@H]3[C@@H]1C`
Reply text: class 0

Inquiry: Entry to check: `C=C1[C@@H](C)[C@H]2[C@H](Cc3ccccc3)NC(=O)[C@@]23[C@H]2[C@@H]4[C@H](C(C)=C[C@@H](C)C[C@H]4O[C@H]12)[C@H]3O`
Reply text: class 0

Inquiry: Entry to check: `C[C@H]1C/C=C/[C@H]2C=C(CO)[C@@H](C)[C@H]3[C@H](Cc4ccccc4)NC(=O)[C@]32[C@H](O)/C=C/[C@](C)(O)C1`
Reply text: class 0

---

Test system: A549
Assay: Cytotoxicity against human A549 cells measured after 72 hrs by MTT assay
Format: functional, cell-based
Details: A549, 72 h
Readings of pIC50 for the listed molecules
In plain terms, pIC50 is the concentration in mol/L turned into minus its base-10 logarithm.

- CC1=C[C@@H]2/C=C/C[C@H](C)C[C@@](C)(O)/C=C/[C@@H](O)[C@]23C(=O)N[C@@H](Cc2ccccc2)[C@@H]3[C@@H]1C: 4.42

// switching to the query molecule
Inquiry: What measured pIC50 goes with `CC1=C[C@@H]2/C=C/C[C@H](C)C[C@@](C)(O)[C@@H]3O[C@H]3C(=O)[C@]23C(=O)N[C@@H](Cc2ccccc2)[C@@H]3[C@@H]1C` ?
Reply text: 4.55

---

Test system: HepG2
Experiment: Cytotoxicity against human HepG2 cells measured after 72 hrs by MTT assay
Format: functional, cell-based
Settings: HepG2, 72 h
pIC50: −log10 of the molar value.
Readings of pIC50 for the listed compounds

See these solved cases before continuing.
* C=C1/C=C/[C@@H](OC(C)=O)[C@@]23C(=O)N[C@@H](Cc4ccccc4)[C@@H]2[C@H](C)C(=C)[C@@H](O)[C@@H]3/C=C/C[C@H](C)C1 | < 4.30
* C=C1[C@@H](C)[C@H]2[C@H](Cc3ccccc3)NC(=O)[C@@]23[C@@H]([C@@H]2[C@H](/C=C(/C)C[C@@H](C)C[C@H]2I)[C@H]3OC(C)=O)[C@@H]1O | 4.33
* CC1=C[C@@H]2/C=C/C[C@H](C)C[C@@](C)(O)[C@@H]3O[C@H]3C(=O)[C@]23C(=O)N[C@@H](Cc2ccccc2)[C@@H]3[C@@H]1C | < 4.30
* CC(=O)O[C@@H]1/C=C/[C@](C)(O)C[C@@H](C)C/C=C/[C@H]2C=C(CO)[C@@H](C)[C@H]3[C@H](Cc4ccccc4)NC(=O)[C@]321 | < 4.30
* C=C1[C@@H](C)[C@H]2[C@H](Cc3ccccc3)NC(=O)[C@]23[C@H](O)/C=C/[C@](C)(O)C[C@@H](C)C/C=C/[C@H]3[C@@H]1O | < 4.30

// switching to the query compound
Inquiry: What measured pIC50 goes with `C[C@H]1C/C=C/[C@H]2C=C(CO)[C@@H](C)[C@H]3[C@H](Cc4ccccc4)NC(=O)[C@]32[C@H](O)/C=C/[C@](C)(O)C1` ?
Reply text: < 4.30

---

Readings of IC50 at 72 h for the listed molecules
Experiment: Cytotoxicity against African green monkey Vero cells measured after 72 hrs by MTT assay
Type: toxicity, cell-based
Conditions: African green monkey (Chlorocebus sabaeus)

See these solved cases before continuing.
* CC(=O)O[C@@H]1/C=C/[C@](C)(O)C[C@@H](C)C/C=C/[C@H]2C=C(CO)[C@@H](C)[C@H]3[C@H](Cc4ccccc4)NC(=O)[C@]321 | 22 µM
* C=C1[C@@H](C)[C@H]2[C@H](Cc3ccccc3)NC(=O)[C@]23[C@H](O)/C=C/[C@](C)(O)C[C@@H](C)C/C=C/[C@H]3[C@@H]1O | > 50 µM

// switching to the query molecule
Inquiry: What measured IC50 at 72 h goes with `C=C1[C@@H](C)[C@H]2[C@H](Cc3ccccc3)NC(=O)[C@]23[C@H](OC(C)=O)[C@@H]2O[C@H]2[C@](C)(O)C[C@@H](C)C/C=C/[C@H]3[C@@H]1O` ?
Reply text: > 50 µM

---

Experiment: Cytotoxicity against African green monkey Vero cells measured after 72 hrs by MTT assay
Type: toxicity, cell-based
Conditions: African green monkey (Chlorocebus sabaeus)
Rule: measured IC50 at 72 h below 30 µM gets Y; anything equal to or greater than 30 µM gets N.

Example results:
- CC1=C[C@@H]2/C=C/C[C@H](C)C[C@@](C)(O)[C@@H]3O[C@H]3C(=O)[C@]23C(=O)N[C@@H](Cc2ccccc2)[C@@H]3[C@@H]1C: Y
- C=C1[C@@H](C)[C@H]2[C@H](Cc3ccccc3)NC(=O)[C@@]23[C@H]2[C@@H]4[C@H](C(C)=C[C@@H](C)C[C@H]4O[C@H]12)[C@@H](I)[C@H]3O: N

Inquiry: # check: IC50 at 72 h < 30 µM for `C=C1[C@@H](C)[C@H]2[C@H](Cc3ccccc3)NC(=O)[C@@]23[C@@H]([C@@H]2[C@H](/C=C(/C)C[C@@H](C)C[C@H]2O)[C@H]3OC(C)=O)[C@@H]1O`
Reply text: N

Inquiry: Entry to check: `C=C1[C@@H](C)[C@H]2[C@H](Cc3ccccc3)NC(=O)[C@@]23[C@H]2[C@@H]4[C@H](C(C)=C[C@@H](C)C[C@H]4O[C@H]12)[C@H]3OC(C)=O`
Reply text: N

Inquiry: Entry to check: `C=C1[C@@H](C)[C@H]2[C@H](Cc3ccccc3)NC(=O)[C@]23[C@H](OC(C)=O)/C=C/[C@](C)(O)C[C@@H](C)C/C=C/[C@H]3[C@@H]1O`
Reply text: N

Inquiry: Entry to check: `C=C1[C@@H](C)[C@H]2[C@H](Cc3ccccc3)NC(=O)[C@@]23[C@@H]([C@@H]2[C@H](/C=C(/C)C[C@@H](C)C[C@H]2I)[C@H]3OC(C)=O)[C@@H]1O`
Reply text: Y

Inquiry: Entry to check: `C=C1[C@@H](C)[C@H]2[C@H](Cc3ccccc3)NC(=O)[C@]23[C@H](OC(C)=O)/C=C/C(C)=C\[C@@H](C)C/C=C/[C@H]3[C@@H]1O`
Reply text: Y

---

System: A549
Test: Cytotoxicity against human A549 cells measured after 72 hrs by MTT assay
Format: functional, cell-based
Details: A549, 72 h
pIC50: −log10 of the molar value.
endpoint: pIC50

See these solved cases before continuing.
• CC(=O)O[C@@H]1/C=C/[C@](C)(O)C[C@@H](C)C/C=C/[C@H]2C=C(C(=O)O)[C@@H](C)[C@H]3[C@H](Cc4ccccc4)NC(=O)[C@]321 = < 4.30
• C=C1[C@@H](C)[C@H]2[C@H](Cc3ccccc3)NC(=O)[C@@]23[C@H]2[C@@H]4[C@H](C(C)=C[C@@H](C)C[C@H]4O[C@H]12)[C@H]3O = < 4.30

// switching to the query compound
Inquiry: What measured pIC50 goes with `C=C1[C@@H](C)[C@H]2[C@H](Cc3ccccc3)NC(=O)[C@@]23[C@@H]([C@@H]2[C@H](/C=C(/C)C[C@@H](C)C[C@H]2O)[C@H]3OC(C)=O)[C@@H]1O` ?
Reply text: < 4.30

---

Assay: Cytotoxicity against African green monkey Vero cells measured after 72 hrs by MTT assay
Type: toxicity, cell-based
Settings: African green monkey (Chlorocebus sabaeus)
Readings of IC50 at 72 h for the listed compounds
State the answer as a number, implicitly in µM.

• C=C1[C@@H](C)[C@H]2[C@H](Cc3ccccc3)NC(=O)[C@@]23[C@@H]([C@@H]2[C@H](/C=C(/C)C[C@@H](C)C[C@H]2Br)[C@H]3OC(C)=O)[C@@H]1O = 18

Inquiry: What measured IC50 at 72 h goes with `C=C1/C=C/[C@@H](OC(C)=O)[C@@]23C(=O)N[C@@H](Cc4ccccc4)[C@@H]2[C@H](C)C(=C)[C@@H](O)[C@@H]3/C=C/C[C@H](C)C1` ?
Reply text: 14
